Reference source for all entries: patent US11999727B2

I'd be grateful if you could share measured IC50 for these entries.
Target: PRMT5 (Homo sapiens)
Construct: purchased Viva (custom protein)
Method: PRMT5 biochemical IC50 assay with no cofactor
Particulars: PRMT5, no cofactor; read-out: No Cofactor/rel IC50

These solved cases illustrate the format of a correct answer.
>  <Compound>
CCc1cc(NC(=O)C(=O)N2C[C@@H](C)CC[C@@H]2c2ccc3sc(-c4ccccn4)nc3c2)cnc1N [Compound 1238]

>  <IC50>
50 to 500 nM

$$$$
>  <Compound>
C[C@@H]1CC[C@@H](c2cccc(C#N)c2)N(C(=O)C(=O)Nc2cncc(C(N)=O)c2)C1 (racemic) [Compound 239]

>  <IC50>
50 to 500 nM

$$$$
>  <Compound>
[H][C@@]1([C@]2([H])C[C@@]3(C[C@H](O)C3)C2)CC[C@@H](C)CN1C(=O)C(=O)Nc1cnc(N)c(C)c1 (single isomer, unassigned) [Compound 767]

>  <IC50>
> 500 nM

$$$$
>  <Compound>
COc1ncc(NC(=O)C(=O)N2C[C@@H](C)CC[C@H]2C2CCCC2)cc1C(N)=O (single isomer, unassigned) [Compound 295]

>  <IC50>
> 500 nM

$$$$
>  <Compound>
NC(=O)c1cncc(NC(=O)C(=O)N2C[C@@H](O)CC[C@@H]2c2ccccc2)c1 (racemic) [Compound 349]

>  <IC50>
> 500 nM

$$$$

Identify measured IC50 associated with CCc1cc(NC(=O)C(=O)N2C[C@H](C)CC[C@H]2c2ccc3c(c2)C(=O)NC3)cnc1N (single isomer, unassigned) [Compound 695]
> 500 nM

###

Test system: HAP1 MTAP-deleted cell line
Method: Viability assay, MTAP-deleted cell line
Format: cell-based
Particulars: Homo sapiens, HAP1, viability assay, MTAP-deleted cell line; read-out: HAP1 MTAP deleted viability
pIC50: −log10 of the molar value.
Recorded endpoint: pIC50

These solved cases illustrate the format of a correct answer.
>  <Molecule>
COc1ncc(NC(=O)C(=O)N2C[C@@H](C)CC[C@@H]2c2cscn2)cc1C(N)=O (single isomer, unassigned)

>  <Target>
HAP1 MTAP-deleted cell line

>  <pIC50>
< 5.00

$$$$
>  <Molecule>
C[C@@H]1[C@@H](C)CC[C@H](c2ccccc2)N1C(=O)C(=O)Nc1cncc(C(N)=O)c1 (single isomer, unassigned)

>  <Target>
HAP1 MTAP-deleted cell line

>  <pIC50>
< 5.00

$$$$
>  <Molecule>
CNc1ccc([C@@H]2CC[C@@H](C)CN2C(=O)C(=O)Nc2cnc(N)c(C)c2)cc1 (racemic)

>  <Target>
HAP1 MTAP-deleted cell line

>  <pIC50>
> 6.00

$$$$

Value sought for every listed molecule: pIC50.
1. CNc1ccc([C@H]2CC[C@@H](C)CN2C(=O)C(=O)Nc2cnc(OC)c(C(N)=O)c2)cn1 (single isomer, unassigned)
2. Cc1cc(NC(=O)C(=O)N2C[C@H](C)CC[C@H]2c2ccc(N3CCN(C)CC3)nc2)cnc1N (single isomer, unassigned)
3. CNc1ccc([C@@H]2CC[C@@H](C)CN2C(=O)C(=O)Nc2cnc(OC)c(C(N)=O)c2)cn1 (single isomer, unassigned)

1: < 5.00; 2: > 6.00; 3: < 5.00

###

Target: PRMT5 (Homo sapiens)
Construct: purchased Viva (custom protein)
Method: PRMT5 biochemical IC50 assay with MTA as cofactor
Particulars: PRMT5, MTA as cofactor; read-out: MTA IC50
pIC50: −log10 of the molar value.
Recorded endpoint: pIC50

>  <Compound>
C[C@@H]1CC[C@@H](c2ccc(F)cc2)N(C(=O)C(=O)Nc2cncc(C(N)=O)c2)C1

>  <Result>
< 6.30

$$$$

Value sought for every listed compound: pIC50.
1. COc1ncc(NC(=O)C(=O)N2C[C@H](C)CC[C@H]2c2ccc(C(N)=O)s2)cc1C(N)=O (single isomer, unassigned)
2. COc1cc([C@H]2CC[C@H](C)CN2C(=O)C(=O)Nc2cncc(C(N)=O)c2)ccn1 (single isomer, unassigned)

1. < 6.30
2. < 6.30

Value sought for every listed compound: pIC50.
1. CCc1cc(NC(=O)C(=O)N2C[C@@H](C)CC[C@@H]2c2ccc(NC3CCN(C)CC3)nc2)cnc1N
2. COc1ncc(NC(=O)C(=O)N2C[C@@H](C)CC[C@@H]2c2cccs2)cc1C(N)=O (single isomer, unassigned)
3. Cc1cc(NC(=O)C(=O)N2C[C@H](C)CC[C@H]2c2ccc(NC3COC3)cc2)cnc1N (racemic)

> 7.30
> 7.30
6.30 to 7.30

###

Target: PRMT5 (Homo sapiens)
Construct: purchased Viva (custom protein)
Method: PRMT5 biochemical IC50 assay with MTA as cofactor
Particulars: PRMT5, MTA as cofactor; read-out: MTA IC50
pIC50: −log10 of the molar value.
I'd be grateful if you could share measured pIC50 for these entries.

These solved cases illustrate the format of a correct answer.
>  <Compound>
C[C@@H]1CN(C(=O)C(=O)Nc2cncc(C(N)=O)c2)[C@@H](c2ccccc2)C[C@H]1O (racemic)

>  <Target>
PRMT5 (Homo sapiens)

>  <Result>
6.30 to 7.30

$$$$
>  <Compound>
CC(=O)N1CCC(c2cccc(C3CCCCN3C(=O)C(=O)Nc3cnc(N)c(C)c3)c2)CC1 (single isomer, unassigned) [Compound 96]

>  <Target>
PRMT5 (Homo sapiens)

>  <Result>
> 7.30

$$$$

Identify measured pIC50 associated with C[C@H]1CC[C@H](c2ccc3sc(N)nc3c2)N(C(=O)C(=O)Nc2cncc(C(N)=O)c2)C1 (single isomer, unassigned)
> 7.30

###

I'd be grateful if you could share measured pIC50 for these entries.
Target: PRMT5 (Homo sapiens)
Construct: purchased Viva (custom protein)
Method: PRMT5 biochemical IC50 assay with no cofactor
Particulars: PRMT5, no cofactor; read-out: No Cofactor/ rel IC50
pIC50: −log10 of the molar value.

These solved cases illustrate the format of a correct answer.
>  <Molecule>
CCc1cc(NC(=O)C(=O)N2C[C@@H](C)CC[C@@H]2c2ccc3nn(C4CN(C)C4)cc3c2)cnc1N (racemic)

>  <Recorded endpoint>
pIC50

>  <Result>
> 7.30

$$$$
>  <Molecule>
CCc1cc(NC(=O)C(=O)N2C[C@@H](C)CC[C@@H]2c2ccc(N3CCN(C)[C@@H](C)C3)nc2)cnc1N (single isomer, unassigned)

>  <Recorded endpoint>
pIC50

>  <Result>
> 7.30

$$$$

Identify measured pIC50 associated with Cc1nc2cc([C@H]3CC[C@H](C)CN3C(=O)C(=O)Nc3cnc(N)c(C4CC4)c3)ccc2s1 (single isomer, unassigned)
> 7.30

###

Target: PRMT5 (Homo sapiens, UniProt O14744)
Construct: purchased Viva (custom protein)
Sequence (O14744 whole entry): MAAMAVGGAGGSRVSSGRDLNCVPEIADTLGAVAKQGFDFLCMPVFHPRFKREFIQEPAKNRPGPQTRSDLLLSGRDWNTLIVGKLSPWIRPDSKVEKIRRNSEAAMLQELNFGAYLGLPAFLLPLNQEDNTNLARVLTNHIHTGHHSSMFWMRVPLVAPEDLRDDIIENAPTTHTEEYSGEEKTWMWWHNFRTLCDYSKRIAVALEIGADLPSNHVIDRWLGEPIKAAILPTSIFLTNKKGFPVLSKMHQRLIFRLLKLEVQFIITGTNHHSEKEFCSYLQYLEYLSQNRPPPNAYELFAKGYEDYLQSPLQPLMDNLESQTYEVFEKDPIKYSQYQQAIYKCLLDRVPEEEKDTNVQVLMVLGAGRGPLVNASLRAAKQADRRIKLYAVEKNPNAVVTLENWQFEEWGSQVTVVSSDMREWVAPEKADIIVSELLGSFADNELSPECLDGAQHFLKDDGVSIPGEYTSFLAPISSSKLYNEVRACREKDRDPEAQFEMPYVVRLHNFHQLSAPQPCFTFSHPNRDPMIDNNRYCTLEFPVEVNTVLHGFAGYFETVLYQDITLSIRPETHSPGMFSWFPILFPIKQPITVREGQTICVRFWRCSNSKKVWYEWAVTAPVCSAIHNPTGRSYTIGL
Sequence (Q9BQA1 whole entry partner): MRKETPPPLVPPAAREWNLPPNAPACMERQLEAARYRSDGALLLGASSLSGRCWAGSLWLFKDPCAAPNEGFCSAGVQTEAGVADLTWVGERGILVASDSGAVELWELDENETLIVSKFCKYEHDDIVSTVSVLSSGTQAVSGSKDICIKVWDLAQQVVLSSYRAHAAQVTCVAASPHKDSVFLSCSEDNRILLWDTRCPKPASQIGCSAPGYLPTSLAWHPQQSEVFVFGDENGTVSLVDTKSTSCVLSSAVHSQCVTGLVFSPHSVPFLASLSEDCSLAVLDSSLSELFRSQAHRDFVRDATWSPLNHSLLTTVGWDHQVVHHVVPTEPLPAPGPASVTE
Method: PRMT5 biochemical IC50 assay with SAM as cofactor
Particulars: PRMT5, SAM as cofactor; read-out: SAM IC50
pIC50: −log10 of the molar value.
I'd be grateful if you could share measured pIC50 for these entries.

>  <Molecule>
Cc1ccc([C@H]2CC[C@@H](C)CN2C(=O)C(=O)Nc2cnc(N)c(C)c2)nc1 (racemic) [Compound 982]

>  <Target>
PRMT5 (Homo sapiens, UniProt O14744)

>  <pIC50>
< 6.30

$$$$
>  <Molecule>
CC(=O)N1CCCC([C@@H]2CC[C@@H](C)CN2C(=O)C(=O)Nc2cnc(N)c(C)c2)C1 (mixture of isomers) [Compound 757]

>  <Target>
PRMT5 (Homo sapiens, UniProt O14744)

>  <pIC50>
6.30 to 7.30

$$$$

Value sought for every listed molecule: pIC50.
1. COc1ncc(NC(=O)C(=O)N2C[C@H](C)CC[C@H]2c2cc3cn[nH]c3s2)cc1C(N)=O (single isomer, unassigned) [Compound 950]
2. Cc1cncc(NC(=O)C(=O)N2C[C@H](C)CC[C@H]2c2ccc(F)cc2)c1 (racemic) [Compound 89]
3. C[C@H]1CC[C@H](c2ccn(-c3cc[nH]n3)n2)N(C(=O)C(=O)Nc2cncc(C(N)=O)c2)C1 (single isomer, unassigned) [Compound 882]
4. CCN1CCC(c2nc3cc([C@H]4CC[C@H](C)CN4C(=O)C(=O)Nc4cnc(OC)c(C(N)=O)c4)ccc3s2)CC1 [Compound 1164]

1. < 6.30
2. < 6.30
3. < 6.30
4. > 7.30

###

Test system: HAP1 MTAP-deleted cell line
Method: Viability assay, MTAP-deleted cell line
Assay type: cell-based
Particulars: Homo sapiens, HAP1, viability assay, MTAP-deleted cell line; read-out: HAP1 MTAP deleted viability
pIC50: −log10 of the molar value.
Recorded endpoint: pIC50

Value sought for every listed molecule: pIC50.
1. C[C@@H]1CC[C@@H](C2CCC2)N(C(=O)C(=O)Nc2cncc(C(N)=O)c2)C1 (single isomer, unassigned) [Compound 216]
2. C[C@@H]1CC[C@@H](c2ccccc2)N(C(=O)C(=O)Nc2cncc(C(N)=O)c2)[C@H]1C (racemic) [Compound 181]
3. COc1ncc(NC(=O)C(=O)N2C[C@@H](C)CC[C@@H]2c2cc3cn[nH]c3s2)cc1C(N)=O (single isomer, unassigned) [Compound 968]
4. C[C@@H]1CC[C@@H](c2cc(F)cc(Cl)c2)N(C(=O)C(=O)Nc2cncc(C(N)=O)c2)C1 (single isomer, unassigned) [Compound 1084]
5. NC(=O)c1cncc(NC(=O)C(=O)N2C[C@@H]3CC[C@@H](C3)[C@@H]2c2ccccc2)c1 (single isomer, unassigned) [Compound 205]

1. < 5.00
2. 5.00 to 6.00
3. > 6.00
4. < 5.00
5. < 5.00

Value sought for every listed molecule: pIC50.
1. COc1ncc(NC(=O)C(=O)N2C[C@@H](C)C(F)(F)C[C@@H]2c2ccc(C)nc2)cc1C(N)=O (single isomer, unassigned) [Compound 908]
2. Cc1nc2cc([C@H]3CC[C@H](C)CN3C(=O)C(=O)Nc3cnc(N)c(C)c3)ccc2[nH]1 (single isomer, unassigned) [Compound 947]
3. Cc1cc(NC(=O)C(=O)N2C[C@H](C)CC[C@H]2c2ccc(F)c3[nH]ncc23)cnc1N (racemic) [Compound 1019]
4. Cc1ncc(NC(=O)C(=O)N2C[C@@H](C)CC[C@@H]2c2ccccc2)cc1C(N)=O (single isomer, unassigned) [Compound 200]
5. C[C@H]1CC[C@H](c2ccc3sc(C4CCN(C)CC4)nc3c2)N(C(=O)C(=O)Nc2cnc(N)c(C(F)(F)F)c2)C1 [Compound 1117]

5.00 to 6.00
> 6.00
5.00 to 6.00
5.00 to 6.00
> 6.00

Value sought for every listed molecule: pIC50.
1. NC(=O)c1cncc(NC(=O)C(=O)N2CC[C@@]3(O)CCCC[C@H]3C2)c1 (racemic) [Compound 421]
2. NC(=O)c1cncc(NC(=O)C(=O)N2CCCCC2C2CCCC2O)c1 (centres unmarked) [Compound 169]
3. COc1ncc(NC(=O)C(=O)N2C[C@@H](C)CC[C@H]2c2ccc(C)cn2)cc1C(N)=O (racemic) [Compound 886]
4. C[C@@H]1CC[C@@H](c2ccc3nncn3c2)N(C(=O)C(=O)Nc2cncc(C(N)=O)c2)C1 (racemic) [Compound 272]
5. C[C@H]1CC[C@@H](c2cccnc2)N(C(=O)C(=O)Nc2cncc(C(N)=O)c2)C1 (single isomer, unassigned) [Compound 104]
6. Cc1ncc([C@@H]2CC[C@@H](C)CN2C(=O)C(=O)Nc2cnc(N)c(C)c2)cn1 (racemic) [Compound 107]
7. CNC(=O)c1ccc([C@H]2CC[C@H](C)CN2C(=O)C(=O)Nc2cncc(C)c2)cc1 (racemic) [Compound 92]
8. C[C@@H]1CC[C@@H](c2ccc(Cl)cc2)N(C(=O)C(=O)Nc2cncc(C(N)=O)c2)C1 (racemic) [Compound 212]

["< 5.00", "< 5.00", "< 5.00", "< 5.00", "< 5.00", "< 5.00", "< 5.00", "5.00 to 6.00"]
